# TARGET UNDER TEST: T1, biotinylated mesothelin ECD (Homo sapiens, UniProt Q13421)
# T1 construct: made in house; host or cells: HEK293F (transient)
# T1 sequence (Q13421 with tags, fused parts or gaps): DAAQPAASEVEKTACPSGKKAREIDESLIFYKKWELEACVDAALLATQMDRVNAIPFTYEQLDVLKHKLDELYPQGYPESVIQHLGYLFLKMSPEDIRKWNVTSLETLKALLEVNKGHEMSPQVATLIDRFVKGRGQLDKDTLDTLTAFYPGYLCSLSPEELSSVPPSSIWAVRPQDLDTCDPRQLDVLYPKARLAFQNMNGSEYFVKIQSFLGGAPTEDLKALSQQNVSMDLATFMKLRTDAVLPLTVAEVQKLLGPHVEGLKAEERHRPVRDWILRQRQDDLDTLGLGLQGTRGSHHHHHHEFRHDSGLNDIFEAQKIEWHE
# ASSAY NOTES: Surface plasmon resonance (Biacore T200) binding affinity of purified scFvs
# RECORDED CONDITIONS: 1:1 Binding or Steady State Affinity fit
PARAMETER MEASURED: Kd (nM)
Dear colleague, please return just the value in nM, with no unit written.

response.value for M16: human anti-mesothelin scFv SEQ ID NO: 54; full CAR SEQ ID NO: 78 (protein) scFv: EVQLVESGGGLVQPGRSLRLSCAASGFTFDDYAMHWVRQAPGKGLEWVSGISWNSGSTGYADSVKGRFTISRDNAKNSLYLQMNSLRAEDTALYYCAKDSSSWYGGGSAFDIWGQGTMVTVSSGGGGSGGGGSGGGGSSSELTQEPAVSVALGQTVRITCQGDSLRSYYASWYQQKPGQAPVLVIFGRSRRPSGIPDRFSGSSSGNTASLIITGAQAEDEADYYCNSRDNTANHYVFGTGTKLTVL (field: Kd) = 22.7
